Method: recombinant UMI read abundance after kanamycin selection (control-corrected) (log10(CPM+1)); higher = more efficient recombination; extreme values may be limits of the assay; sequences stand for … in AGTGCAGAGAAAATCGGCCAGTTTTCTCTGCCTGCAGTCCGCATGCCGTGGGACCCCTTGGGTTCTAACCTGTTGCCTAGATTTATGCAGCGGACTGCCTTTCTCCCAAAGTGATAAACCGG…AGGTTGGTTTCACT; site = the 11-nt donor;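 also: IS621 bridge recombinase in Escherichia coli cells against a fixed T5 target plasmid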
Readout label: recombinant UMI read abundance (log10)
API note: the answer field is a bare number with no unit suffix.

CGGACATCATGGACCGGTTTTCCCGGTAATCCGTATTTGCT (site CAGACATCTAG): 1.53
TGAGGACCATGGACCGGTTTTCCCGGTAATCCGTATTTGCA (site TGAGGACCTTG): 0
GTAGGTACATGGACCGGTTTTCCCGGTAATCCGTATTTGAC (site GTAGGTGCTGT): 2.02
GACAAAACATGGACCGGTTTTCCCGGTAATCCGTATTTGCG (site GACAAAACTCG): 1.5

Alright, here's another sequence for you.
Challenge: Requested read-out: recombinant UMI read abundance (log10). Entry: AGACACTCATGGACCGGTTTTCCCGGTAATCCGTATTTGGT (site AGACACTCTAC)
Response given: 2.78
